- assay.protocol: Plasma pharmacokinetics of DT2216 in patients, phase 1 dose escalation
- Format: in vivo, human
- condition.description: human, plasma, iv, 0.04 mg/kg, Cycle 1 Day 1, 0.04 mg/kg IV, plasma, mean (CV%), N = 1; read-out: T½ (converted)
property.label: half-life (h)
Write the number in h without appending the unit.

Input: Give half-life for the following compound: Cc1ncsc1-c1ccc([C@H](C)NC(=O)[C@@H]2C[C@@H](O)CN2C(=O)[C@@H](NC(=O)CCCCCC(=O)N2CCN(CC[C@H](CSc3ccccc3)Nc3ccc(S(=O)(=O)NC(=O)c4ccc(N5CCN(CC6=C(c7ccc(Cl)cc7)CCC(C)(C)C6)CC5)cc4)cc3S(=O)(=O)C(F)(F)F)CC2)C(C)(C)C)cc1 [DT2216]
Output: 12.8

###

- assay.protocol: Plasma pharmacokinetics of DT2216 in patients, phase 1 dose escalation
- Assay type: in vivo, human
- condition.description: human, plasma, iv, 0.12 mg/kg, Cycle 1 Day 22, 0.12 mg/kg IV BIW, plasma, mean (CV%), N = 1; read-out: AUC0−∞
property.label: AUC(0-inf) (ng·h/mL)
Write the number in ng·h/mL without appending the unit.

Input: Give AUC(0-inf) for the following compound: Cc1ncsc1-c1ccc([C@H](C)NC(=O)[C@@H]2C[C@@H](O)CN2C(=O)[C@@H](NC(=O)CCCCCC(=O)N2CCN(CC[C@H](CSc3ccccc3)Nc3ccc(S(=O)(=O)NC(=O)c4ccc(N5CCN(CC6=C(c7ccc(Cl)cc7)CCC(C)(C)C6)CC5)cc4)cc3S(=O)(=O)C(F)(F)F)CC2)C(C)(C)C)cc1 [DT2216]
Output: 14500

###

- assay.protocol: Plasma pharmacokinetics of DT2216 in patients, phase 1 dose escalation
- Type: in vivo, human
- condition.description: human, plasma, iv, 0.08 mg/kg, Cycle 1 Day 22, 0.08 mg/kg IV BIW, plasma, median (min, max), N = 1
property.label: Tmax (h)
Write the number in h without appending the unit.

Input: Give Tmax for the following molecule: Cc1ncsc1-c1ccc([C@H](C)NC(=O)[C@@H]2C[C@@H](O)CN2C(=O)[C@@H](NC(=O)CCCCCC(=O)N2CCN(CC[C@H](CSc3ccccc3)Nc3ccc(S(=O)(=O)NC(=O)c4ccc(N5CCN(CC6=C(c7ccc(Cl)cc7)CCC(C)(C)C6)CC5)cc4)cc3S(=O)(=O)C(F)(F)F)CC2)C(C)(C)C)cc1 [DT2216]
Output: 2.5

###

- assay.protocol: Plasma pharmacokinetics of DT2216 in patients, phase 1 dose escalation
- Assay type: in vivo, human
- condition.description: human, plasma, iv, 0.04 mg/kg, Cycle 1 Day 22, 0.04 mg/kg IV BIW, plasma, mean (CV%), N = 1; read-out: AUClast
property.label: AUC(0-t) (ng·h/mL)
Write the number in ng·h/mL without appending the unit.

Input: Give AUC(0-t) for the following compound: Cc1ncsc1-c1ccc([C@H](C)NC(=O)[C@@H]2C[C@@H](O)CN2C(=O)[C@@H](NC(=O)CCCCCC(=O)N2CCN(CC[C@H](CSc3ccccc3)Nc3ccc(S(=O)(=O)NC(=O)c4ccc(N5CCN(CC6=C(c7ccc(Cl)cc7)CCC(C)(C)C6)CC5)cc4)cc3S(=O)(=O)C(F)(F)F)CC2)C(C)(C)C)cc1 [DT2216]
Output: 5390

Reference source: paper PMC12613848
